In this section, each of the binders is paired with its reported Kd.
# target: T1, Rep15, full length (natural N101D variant) (human, UniProt Q6BDI9 1-236, N101D)
# T1 sequence: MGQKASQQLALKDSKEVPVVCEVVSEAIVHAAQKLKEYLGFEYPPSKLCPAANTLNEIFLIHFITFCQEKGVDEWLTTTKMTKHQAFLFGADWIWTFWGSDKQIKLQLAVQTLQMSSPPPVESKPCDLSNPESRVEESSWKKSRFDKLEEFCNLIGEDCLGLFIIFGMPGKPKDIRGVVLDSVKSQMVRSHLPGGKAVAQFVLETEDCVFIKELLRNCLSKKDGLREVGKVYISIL
# method: ITC
Could you give me the number in µM? Just the number is fine.

Worked cases, Kd given:
Rab3A Y84F, purified (natural protein) MASATDSRYGQKESSDQNFDYMFKILIIGNSSVGKTSFLFRYADDSFTPAFVSTVGIDFKVKTIYRNDKRIKLQIWDTAGQERFRTITTAYYRGAMGFILMYDITNEESFNAVQDWSTQIKTYSWDNAQVLLVGNKCDMEDERVVSSERGRQLADHLGFEFFEASAKDNINVKQTFERLVDVICEKMSESLDTADPAVTGAKQGPQLSDQQVPPHQDCAC = 11.1
Rab27A F81Y, purified (natural protein, human, UniProt P51159 1-221, looked up, Rab27A, human, with F81Y; also called F81Y Rab27A; source: E. coli, purified) MSDGDYDYLIKFLALGDSGVGKTSVLYQYTDGKFNSKFITTVGIDFREKRVVYRASGPDGATGRGQRIHLQLWDTAGQERYRSLTTAFFRDAMGFLLLFDLTNEQSFLNVRNWISQLQMHAYCENPDIVLCGNKSDLEDQRVVKEEEAIALAEKYGIPYFETSAANGTNISQAIEMLLDLIMKRMERCVDKSWIPEGVVRSNGHASTDQLSEEKEKGACGC = 10.8

Turning now to a further record.
Task: # input binder: Rab3A V61N, purified (natural protein, human, UniProt P20336 1-220, looked up, Rab3A, human, with V61N; Tag as told for the 6His-tagged Rab3 paralogs in general; source: E. coli BL21 Codon-Plus (DE3)-RIL, purified) MASATDSRYGQKESSDQNFDYMFKILIIGNSSVGKTSFLFRYADDSFTPAFVSTVGIDFKNKTIYRNDKRIKLQIWDTAGQERYRTITTAYYRGAMGFILMYDITNEESFNAVQDWSTQIKTYSWDNAQVLLVGNKCDMEDERVVSSERGRQLADHLGFEFFEASAKDNINVKQTFERLVDVICEKMSESLDTADPAVTGAKQGPQLSDQQVPPHQDCAC ; wanted: its Kd
Result: 0.39

Hey, just so you know, these numbers are from paper PMC9308819.
